Where these numbers come from: paper PMC6485449

Test system: PAR synthesis in LoVo cells
Assay: Intracellular PAR formation assay
Assay type: cell-based
Settings: Homo sapiens, read-out: intracellular PAR formation IC50
REPORTED PROPERTY: pIC50
Keep it numeric: pIC50 is minus log10 of the concentration in mol/L.

Fill in the blank: the reported pIC50 of Cn1ncnc1[C@H]1c2n[nH]c(=O)c3cc(F)cc(c23)N[C@@H]1c1ccc(F)cc1 is ____.
8.60

* * *

System: PAR synthesis in LoVo cells
Assay: Intracellular PAR formation assay
Format: cell-based
Settings: Homo sapiens, read-out: Cellular PAR Synthesis EC50
REPORTED PROPERTY: EC50 (nM)
Output spec: scalar in nM, unitless text.

Fill in the blank: the reported EC50 of Cn1ncnc1[C@H]1c2n[nH]c(=O)c3cc(F)cc(c23)N[C@@H]1c1ccc(F)cc1 [BMN 673] is ____.
2.5
